system: Candida albicans; experiment: Antifungal activity against Candida albicans SC5314 cultured in YNB media after 24 hrs by broth microdilution method; assay type: functional; settings: SC5314, 24 h
metric: MIC

>  <compound.string>
CCCOC(=O)c1ccccc1OS(=O)(=O)[N-]C(=O)Nc1nc(C)cc(OC)n1.[Na+]

>  <MIC>
> 100 µg/mL

$$$$
>  <compound.string>
COc1cc(C)nc(NC(=O)[N-]S(=O)(=O)Oc2ccccc2C(=O)OCC(F)(F)F)n1.[Na+]

>  <MIC>
20 µg/mL

$$$$
>  <compound.string>
Cc1cc(C)nc(NC(=O)[N-]S(=O)(=O)Oc2ccccc2OCCI)n1.[Na+]

>  <MIC>
> 100 µg/mL

$$$$
>  <compound.string>
CCOC(=O)c1ccccc1OS(=O)(=O)[N-]C(=O)Nc1nc(C)cc(Cl)n1.[Na+]

>  <MIC>
> 100 µg/mL

$$$$

Prompt: Quick check: MIC of "COc1cc(OC)nc(NC(=O)[N-]S(=O)(=O)Oc2ccccc2C(=O)Oc2ccccc2)n1.[Na+]" ?
Completion: > 100 µg/mL

Prompt: Please answer likewise for "COc1cc(C)nc(NC(=O)[N-]S(=O)(=O)Oc2ccc([N+](=O)[O-])cc2)n1.[Na+]"
Completion: > 100 µg/mL

Prompt: Please answer likewise for "COc1cc(Cl)nc(NC(=O)[N-]S(=O)(=O)Oc2ccccc2OCCI)n1.[Na+]"
Completion: > 100 µg/mL

Prompt: Please answer likewise for "OC(Cn1cncn1)(Cn1cncn1)c1ccc(F)cc1F"
Completion: 0.25 µg/mL

Prompt: Please answer likewise for "COc1cc(Br)nc(NC(=O)[N-]S(=O)(=O)Oc2ccccc2C(=O)OCCCl)n1.[Na+]"
Completion: > 100 µg/mL

Prompt: Please answer likewise for "COc1cc(Br)nc(NC(=O)[N-]S(=O)(=O)Oc2ccccc2[N+](=O)[O-])n1.[Na+]"
Completion: > 100 µg/mL

Prompt: Please answer likewise for "COc1cc(I)nc(NC(=O)[N-]S(=O)(=O)Oc2ccccc2OCCI)n1.[Na+]"
Completion: 20 µg/mL

Prompt: Please answer likewise for "Cc1cc(C)nc(NC(=O)[N-]S(=O)(=O)Oc2ccccc2C(=O)OC(C)C)n1.[Na+]"
Completion: > 100 µg/mL

---

tested on: Candida albicans; test: Antifungal activity against Candida albicans SC5314 cultured in YNB media after 24 hrs by broth microdilution method; type: functional; conditions: SC5314, 24 h
Quick reference: MIC of the listed items.

Here is how some molecules turned out for MIC.
>  <compound.string>
COc1cc(OC)nc(NC(=O)[N-]S(=O)(=O)Oc2ccccc2C(=O)OCCI)n1.[Na+]

>  <result>
> 100 mg/L

$$$$
>  <compound.string>
CCOC(=O)c1ccccc1OS(=O)(=O)[N-]C(=O)Nc1nc(Cl)cc(OC)n1.[Na+]

>  <result>
40 mg/L

$$$$
>  <compound.string>
Cc1cc(Cl)nc(NC(=O)[N-]S(=O)(=O)Oc2ccccc2OCCCl)n1.[Na+]

>  <result>
> 100 mg/L

$$$$
>  <compound.string>
COc1cc(Cl)nc(NC(=O)[N-]S(=O)(=O)Oc2ccccc2C(=O)OCCI)n1.[Na+]

>  <result>
> 100 mg/L

$$$$
>  <compound.string>
COC(=O)c1ccccc1OS(=O)(=O)[N-]C(=O)Nc1nc(I)cc(OC)n1.[Na+]

>  <result>
> 100 mg/L

$$$$

Prompt: Quick check: MIC of "CCOC(=O)c1ccccc1OS(=O)(=O)[N-]C(=O)Nc1nc(OC)cc(OC)n1.[Na+]" ?
Completion: 1.25 mg/L

Prompt: Please answer likewise for "CCCOC(=O)c1ccccc1OS(=O)(=O)[N-]C(=O)Nc1nc(Cl)cc(OC)n1.[Na+]"
Completion: > 100 mg/L
